- Test system: U-251
- test method notes: NCI tumour cell line growth inhibition, 48 h
Active and inactive are the calls of the source. Rule as the data show it: active = GI50 up to about 1.1 µM and inactive = higher.
Recorded GI50, one value per entry.
value type: GI50

molecule=Cc1ccc(Nc2n[nH]c(=S)s2)cc1 observed_value="> 100 µM (inactive)"
molecule=COc1ccc(-c2nc(SCC(=O)N/N=C/c3ccc([N+](=O)[O-])cc3)[nH]c2-c2ccc(OC)cc2)cc1 observed_value="11.7 µM (inactive)"
molecule=COc1cccc(NC(=O)CC(=O)NNCC(=O)Nc2nnc(-c3ccc(N(CCC#N)S(=O)(=O)c4ccccc4)cc3)s2)c1 observed_value="76.9 µM (inactive)"
molecule="CCCC/C=C1\\CCC(CN2CCCCC2)C1=O (stereo not given)" observed_value="29.2 µM (inactive)"
molecule=C=Cc1ccccc1C1(O)C=CC(OC)(OC)C=C1 observed_value="3.66 µM (inactive)"
molecule=N#C/N=C1/c2ccccc2/C(=N/C#N)c2cc(CO)ccc21 observed_value="34.4 µM (inactive)"
molecule="OCC12C3C4C1C1C2C3C41CO (stereo not given)" observed_value="> 100 µM (inactive)"
molecule=C[C@@]1(CO)[C@H](O)CC[C@@]2(C)[C@H]1CC[C@H]1C[C@@H]3C[C@@]12CC[C@@]3(O)COC(=O)CN observed_value="10.6 µM (inactive)"
molecule="COC1CCC(=C2C(=O)OC(C)(C)OC2=O)N1 (stereo not given)" observed_value="> 100 µM (inactive)"
molecule=CN(C)CCNC(=O)c1cccc2nc3c(nc12)-c1ccccc1C3=O observed_value="13.4 µM (inactive)"
